- subject_of_test: human PF4 (Homo sapiens, UniProt P02776)
- Construct: PF4 is a 70 amino acid, lysine-rich 7.8 kDa platelet-specific protein; made in house; host or cells: Escherichia coli BL21DE3 pLysS (pT7-7) and/or Drosophila S2 cells
- Sequence (P02776 32-101): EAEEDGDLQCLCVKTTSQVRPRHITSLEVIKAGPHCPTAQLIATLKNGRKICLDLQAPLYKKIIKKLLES
- procedure_text: Inhibition of PF4 tetramer formation (BS3 cross-linking, SDS-PAGE)
- Type: biochemical
- condition_info: read-out: IC50 of PF4 tetramer formation inhibition
Here the recorded log10 of IC50 is given for each entry.
Values below are the log10 of the recorded IC50, with µM as the unit.

O=C(c1ccc2c(c1)C(=O)C(C(=O)[C@@H]1CCCN1C(=O)OCc1ccccc1)C2=O)c1ccc2c(c1)C(=O)C(C(=O)[C@@H]1CCCN1C(=O)OCc1ccccc1)C2=O (some centres unmarked); 0.08
CSCCC(=O)C1C(=O)c2ccc(Oc3ccc4c(c3)C(=O)C(C(=O)CCSC)C4=O)cc2C1=O (centres unmarked); 0.48
O=C(NCCc1cccc(Cl)c1)C1C(=O)c2ccc(S(=O)(=O)c3ccc4c(c3)C(=O)C(C(=O)NCCc3cccc(Cl)c3)C4=O)cc2C1=O (centres unmarked); 0.48
O=C(NC1CC1)C1C(=O)c2ccc(C(c3ccc4c(c3)C(=O)C(C(=O)NC3CC3)C4=O)(C(F)(F)F)C(F)(F)F)cc2C1=O (centres unmarked); 0.73
CC(C)(C)OC(=O)N1CC2(CC(C(=O)C3C(=O)c4ccc(C(=O)c5ccc6c(c5)C(=O)C(C(=O)C5CC7(C5)CN(C(=O)OC(C)(C)C)C7)C6=O)cc4C3=O)C2)C1 (centres unmarked); 0.61

Kindly consider the entry below.
[ask] Entry COc1ccc(NC(=O)C2C(=O)c3ccc(C(=O)c4ccc5c(c4)C(=O)C(C(=O)Nc4ccc(OC)cc4)C5=O)cc3C2=O)cc1 (centres unmarked) has what log10 of IC50?
[reply] 0.24

====

- procedure_text: Pharmacokinetics after IV bolus in CD-1 mice
- Assay type: in vivo
- condition_info: mouse, plasma; CD-1 mice, 1 mg/kg IV bolus, concentration at t=0 min
property: C0 (ng/mL)
The reply should be a number in ng/mL, with the unit left off.

[ask] Entry CC(=O)C1C(=O)c2ccc(C(=O)c3ccc4c(c3)C(=O)C(C(C)=O)C4=O)cc2C1=O (stereo not shown) [Example 1] has what C0?
[reply] 15100

====

- procedure_text: Cytotoxicity HepG2 (MTS reduction)
- Type: cell-based
- condition_info: human, HepG2 cells; read-out: Cytotox HepG2 EC50
Here the recorded EC50 is given for each entry.

// solved cases for EC50 follow
O=C(c1ccc2c(c1)C(=O)CC2=O)c1ccc2c(c1)C(=O)CC2=O [Example 4]; > 250 µg/mL
CCCNC(=O)C1C(=O)c2ccc(C(=O)c3ccc4c(c3)C(=O)C(C(=O)NCCC)C4=O)cc2C1=O (centres unmarked) [Example 15]; > 1000 µg/mL
CCOC(=O)C1C(=O)c2ccc(C(=O)c3ccc4c(c3)C(=O)C(C(=O)OCC)C4=O)cc2C1=O (centres unmarked) [Example 3]; > 500 µg/mL
CC(=O)C1(C(=O)OC(C)(C)C)C(=O)c2ccc(Oc3ccc4c(c3)C(=O)C(C(C)=O)(C(=O)OC(C)(C)C)C4=O)cc2C1=O (centres unmarked) [Example 5]; > 3350 µg/mL

[ask] Entry CC(=O)C1C(=O)c2ccc(C(=O)c3ccc4c(c3)C(=O)C(C(C)=O)C4=O)cc2C1=O (centres unmarked) [Example 1] has what EC50?
[reply] > 1000 µg/mL
